Numbers sourced from ChEMBL document CHEMBL1158870.

test system: HCT-15; test: Cytotoxicity against human HCT15 cells by SRB assay; type: functional
Below, each of the compounds is paired with its reported TGI value.
measuredEndpoint: TGI (µM)

1. C=C(C=O)[C@H](C)[C@@H]1CC[C@]23C[C@]12CC[C@@H]1[C@@]2(C)CC[C@@H](OC(C)=O)C(C)(C)[C@@H]2C[C@@H](O[C@@H]2O[C@H](COC(C)=O)[C@@H](O)[C@H](O)[C@H]2O)[C@]13C [CUMINDYSODIDE A]	7.5
2. CC(=O)OC[C@H]1O[C@@H](O[C@@H]2C[C@H]3C(C)(C)[C@H](OC(C)=O)CC[C@]3(C)[C@H]3CC[C@]45C[C@]4(CC[C@H]5[C@@H](C)C[C@@H](O)[C@H](O)C(C)(C)O)[C@@]32C)[C@H](O)[C@@H](O)[C@@H]1O [CUMINGIANOSIDE A]	13.9
3. COC(C)(C)[C@@H](O)[C@H](O)C[C@H](C)C1=C2CC[C@@H]3[C@@]4(C)CC[C@@H](OC(C)=O)C(C)(C)[C@@H]4C[C@@H](O[C@@H]4O[C@H](COC(C)=O)[C@@H](O)[C@H](O)[C@H]4O)[C@@]3(C)[C@]2(C)CC1	23.8
4. COC(C)(C)[C@@H](O)[C@H](O)C[C@H](C)[C@@H]1CC[C@]23C[C@]12CC[C@@H]1[C@@]2(C)CC[C@@H](OC(C)=O)C(C)(C)[C@@H]2C[C@@H](O[C@@H]2O[C@H](COC(C)=O)[C@@H](O)[C@H](O)[C@H]2O)[C@]13C [CUMINGIANOSIDE C]	6.3

====

Below, each of the molecules is paired with its reported GI50 value.
tested on: SR; assay: Cytotoxicity against human SR cells by SRB assay; assay type: functional
measuredEndpoint: GI50 (nM)

1. C=C1[C@@H](O)C[C@@]23CC[C@@H]4[C@@]5(C)CC[C@@H](OC(C)=O)C(C)(C)[C@@H]5C[C@@H](O[C@@H]5O[C@H](COC(C)=O)[C@@H](O)[C@H](O)[C@H]5O)[C@@]4(C)C2=CC[C@H]3[C@H]1C	2340
2. CC(=O)OC[C@H]1O[C@@H](O[C@@H]2C[C@H]3C(C)(C)[C@H](OC(C)=O)CC[C@]3(C)[C@H]3CC[C@@]45C[C@H](O)C[C@H](C)[C@@H]4CC=C5[C@@]32C)[C@H](O)[C@@H](O)[C@@H]1O	1820
3. COC(C)(C)[C@@H](O)[C@H](O)C[C@H](C)C1=C2CC[C@@H]3[C@@]4(C)CC[C@@H](OC(C)=O)C(C)(C)[C@@H]4C[C@@H](O[C@@H]4O[C@H](COC(C)=O)[C@@H](O)[C@H](O)[C@H]4O)[C@@]3(C)[C@]2(C)CC1	3090

====

test system: NCI-H460; test: Cytotoxicity against human NCI-H460 cells by SRB assay; format: functional
measuredEndpoint: GI50 (µM)

1) CC(=O)OC[C@H]1O[C@@H](O[C@@H]2C[C@H]3C(C)(C)[C@H](OC(C)=O)CC[C@]3(C)[C@H]3CC[C@@H]4[C@]5(CC[C@@]4(C)[C@@]32C)O[C@@H]([C@H](O)C(C)(C)O)C[C@@H]5C)[C@H](O)[C@@H](O)[C@@H]1O	6.61
2) C=C1[C@@H](O)C[C@@]23CC[C@@H]4[C@@]5(C)CC[C@@H](OC(C)=O)C(C)(C)[C@@H]5C[C@@H](O[C@@H]5O[C@H](COC(C)=O)[C@@H](O)[C@H](O)[C@H]5O)[C@@]4(C)C2=CC[C@H]3[C@H]1C	4.27
3) CC(=O)OC[C@H]1O[C@@H](O[C@@H]2C[C@H]3C(C)(C)[C@H](OC(C)=O)CC[C@]3(C)[C@H]3CC[C@@]45C[C@H](O)C[C@H](C)[C@@H]4CC=C5[C@@]32C)[C@H](O)[C@@H](O)[C@@H]1O	3.31
4) COC(C)(C)[C@@H](O)[C@H](O)C[C@H](C)C1=C2CC[C@@H]3[C@@]4(C)CC[C@@H](OC(C)=O)C(C)(C)[C@@H]4C[C@@H](O[C@@H]4O[C@H](COC(C)=O)[C@@H](O)[C@H](O)[C@H]4O)[C@@]3(C)[C@]2(C)CC1	9.12
5) COC(C)(C)[C@@H](O)[C@H]1C[C@H](C)[C@@]2(CC[C@]3(C)[C@@H]2CC[C@@H]2[C@@]4(C)CC[C@@H](OC(C)=O)C(C)(C)[C@@H]4C[C@@H](O[C@@H]4O[C@H](COC(C)=O)[C@@H](O)[C@H](O)[C@H]4O)[C@]23C)O1	3.8
6) C=C(C)[C@@H](O)[C@H](O)C[C@H](C)[C@@H]1CC[C@]2(C)C1=CC[C@@H]1[C@@]3(C)CC[C@@H](OC(C)=O)C(C)(C)[C@@H]3C[C@@H](O[C@@H]3O[C@H](COC(C)=O)[C@@H](O)[C@H](O)[C@H]3O)[C@]12C	2.45
7) CC(=O)OC[C@H]1O[C@@H](O[C@@H]2C[C@H]3C(C)(C)[C@H](OC(C)=O)CC[C@]3(C)[C@H]3CCC4=C([C@@H](C)C[C@@H](O)[C@H](O)C(C)(C)O)CC[C@@]4(C)[C@@]32C)[C@H](O)[C@@H](O)[C@@H]1O	15.8
